- Assay Target: Histone-lysine N-methyltransferase ASH1L (Homo sapiens, UniProt Q9NR48)
- Test Summary: Inhibition of MOCR-fused ASH1L SET-BAH ( 2069 to 2833 amino acids) (unknown origin) expressed as in Escherichia coli BL21 (DE3) T1R cells using SAM and chicken mono/dinucleosomes incubated for 1 hr by scintillation counting assay
pIC50: −log10 of the molar value.
Measured pIC50, listed per entry.

Below, each entry is followed by its recorded pIC50 result.
NC(=S)c1cc(-c2cn(CCC(F)F)c3cc(CO)ccc23)ccc1O
> 4.70
NC(=S)c1cccc(-c2c[nH]c3cc(CNC=O)ccc23)c1
4.00 to 4.70
NC(=S)c1ccc(N)c(-c2cccc3[nH]ccc23)c1
< 4.00
NC(=S)c1cccc(-c2cn(CCC(O)C(F)(F)F)c3cc(N)ccc23)c1 (stereo not drawn)
4.00 to 4.70
NC(=S)c1cccc(Oc2ccccc2)c1
< 4.00

What pIC50 value was documented for this compound, NC(=S)c1cccc(-c2cc(C(F)(F)F)cc3c2ccn3CC(F)(F)F)c1 ?
4.00 to 4.70

GET /values?readout=pIC50&item= NC(=S)c1cccc(-c2ccc(O)c3c2CCC3)c1
< 4.00

I have this compound here, NC(=O)c1cc(-c2cn(CCC(F)F)c3cc(CO)ccc23)ccc1N , and I need its recorded pIC50.
> 4.70
